Attribution: patent US20230135894A1

Measured Dmax of individual entries
# target desc: MK2 (Homo sapiens, UniProt P49137)
# Sequence (P49137 whole entry): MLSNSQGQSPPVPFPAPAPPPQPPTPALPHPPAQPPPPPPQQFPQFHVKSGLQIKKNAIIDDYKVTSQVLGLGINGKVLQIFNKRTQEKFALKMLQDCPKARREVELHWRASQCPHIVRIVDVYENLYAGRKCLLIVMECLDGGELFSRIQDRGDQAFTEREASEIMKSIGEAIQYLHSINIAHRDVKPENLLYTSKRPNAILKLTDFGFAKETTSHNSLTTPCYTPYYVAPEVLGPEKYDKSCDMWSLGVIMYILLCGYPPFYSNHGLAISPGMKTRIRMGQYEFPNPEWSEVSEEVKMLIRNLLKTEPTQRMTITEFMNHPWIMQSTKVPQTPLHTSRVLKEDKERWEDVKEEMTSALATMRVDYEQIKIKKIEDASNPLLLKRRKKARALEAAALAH
# protocol summary: MK2 degradation in human THP-1 monocytic cells (MSD, 24 h)
# Assay type: cell-based
# Parameters: endogenous in cells
# test context: THP-1, THP-1 cells
# Description: MK2 Degradation in Human THP-1 Monoctyic Cells […] After 3 more washes, the secondary detection antibody (SULFO-Tag anti rabbit antibody R32AB-5) was added at a final concentration of 1 microgram per ml at 25 microlitres per well and shaken at room temperature for 1 hour at 600 rpm. After 3 more washes, the 1×MSD (diluted from 5× concentrate with water) reading buffer was added at 150 microlitres per well and read on the MSD instrument Meso Sector S 600. […]

Sample answers from the record:
- molecule: "C[C@@H]1CNc2c(sc3ccc4nc(-c5cncc(N6CCN(CCCCCCCc7cccc8c7n(C)c(=O)n8C7CCC(=O)NC7=O)CC6)c5)ccc4c23)C(=O)N1 (stereo partly shown) [Compound I-158]"
  observed property: "Dmax"
  obs value: "> 75%"
- molecule: "Cn1c(=O)n(C2CCC(=O)NC2=O)c2ccc(N3CC(CN4CCN(c5ccc(-c6nccc(-c7cc8c([nH]7)C7(CC7)CNC8=O)n6)cc5)CC4)C3)cc21 (stereo not shown) [Compound I-426]"
  observed property: "Dmax"
  obs value: "> 75%"
- molecule: "C[C@@H]1CNc2c(sc3ccc4nc(N5CCC(N6CCC7(CCN(c8ccc9c(c8)n(C)c(=O)n9C8CCC(=O)NC8=O)CC7)CC6)CC5)ccc4c23)C(=O)N1 (stereo partly shown) [Compound I-395]"
  observed property: "Dmax"
  obs value: "> 75%"
- molecule: "Cn1c(=O)n(C2CCC(=O)NC2=O)c2cccc(C3CCN(CC4CCN(c5ccc(-c6cc(-c7cc8c([nH]7)CCNC8=O)ccn6)c(F)c5)CC4)CC3)c21 (stereo not shown) [Compound I-137]"
  observed property: "Dmax"
  obs value: "> 75%"
- molecule: "C[C@@H]1CNc2c(sc3ccc4nc(-c5ccc(CNC(=O)CCCCCCCc6ccc7c(c6)n(C)c(=O)n7C6CCC(=O)NC6=O)cc5)ccc4c23)C(=O)N1 (stereo partly shown) [Compound I-87]"
  observed property: "Dmax"
  obs value: "> 75%"
- molecule: "CN1CC2(CNC(=O)c3c2[nH]c2c3CCc3cnc(-c4ccc(CN5CCC(OCC#Cc6ccc7c(c6)n(C)c(=O)n7C6CCC(=O)NC6=O)CC5)cc4F)cc3-2)C1 (stereo not shown) [Compound I-1]"
  observed property: "Dmax"
  obs value: "< 50%"
- molecule: "Cc1cc(N2CCC(CN3CCC(c4ccc5c(c4)n(C)c(=O)n5C4CCC(=O)NC4=O)CC3)CC2)ccc1-c1ccc2c(ccc3sc4c(c32)NC[C@@H](C)NC4=O)n1 (stereo partly shown) [Compound I-291]"
  observed property: "Dmax"
  obs value: "> 75%"
- molecule: "Cn1c(=O)n(C2CCC(=O)NC2=O)c2ccc(N3CC(CN4CCN(c5ccc(-c6cc(-c7cc8c([nH]7)C7(CC7)CNC8=O)ccn6)c(F)c5)CC4)C3)cc21 (stereo not shown) [Compound I-425]"
  observed property: "Dmax"
  obs value: "> 75%"
- molecule: "C[C@@H]1CNc2c(sc3ccc4nc(N5CCN(CC6CCN(c7cccc8c7n(C)c(=O)n8C7CCC(=O)NC7=O)CC6)CC5)ccc4c23)C(=O)N1 (stereo partly shown) [Compound I-196]"
  observed property: "Dmax"
  obs value: "> 75%"
- molecule: "C[C@@H]1CNc2c(sc3ccc4nc(N5CCC(N6CCC7(CCN(c8ccc9c(c8)n(C)c(=O)n9C8CCC(=O)NC8=O)CC7)C6)CC5)ccc4c23)C(=O)N1 (stereo partly shown) [Compound I-410]"
  observed property: "Dmax"
  obs value: "> 75%"

QUERY: For MK2 (Homo sapiens, UniProt P49137), provide Dmax of C[C@@H]1CNc2c(sc3ccc4nc(N5CCC(N6CCC7(CC6)CN(c6ccc8c(c6)n(C)c(=O)n8C6CCC(=O)NC6=O)C7)CC5)ccc4c23)C(=O)N1 (stereo partly shown) [Compound I-402] please.
RESULT: 50 to 75%

QUERY: # iterate: C[C@@H]1CNc2c(sc3ccc4nc(-c5cccc(N6CCC(CN7CCN(c8ccc9c(c8)CN(C8CCC(=O)NC8=O)C9=O)CC7)CC6)c5)ccc4c23)C(=O)N1 (stereo partly shown) [Compound I-304]
RESULT: > 75%

QUERY: # iterate: C[C@@H]1CNc2c(sc3ccc4nc(-c5ccc(N6CCC(CCN7CCN(c8cccc9c8n(C)c(=O)n9C8CCC(=O)NC8=O)CC7)CC6)cc5)ccc4c23)C(=O)N1 (stereo partly shown) [Compound I-128]
RESULT: > 75%
